readout name: melting point

Example compounds with recorded melting point:
CCCCCCCCCCCCCCCCCCNC(=O)CCC(=O)O    124 to 125 °C
CCCCCCCCCCCCCCCCCCN(CCCCO)CCCCCCCCCCCCCCCCCC [Compound 48a, 4-(Dioctadecylamino)butan-1-ol]    57 to 58 °C

Attention now turns to another entry.
Problem: Retrieve melting point measured for `CCCCCCCCCCCCCCCCCCN(CCCO)CCCCCCCCCCCCCCCCCC` and print it.
Solution: 48 to 49 °C
